# Target Of Assay: T1, extracellular domain (ECD) of human CD47 (19aa-139aa) with C-terminal 6xHis tag (human, UniProt Q08722 19-139)
# T1 construct: also called recombinant CD47; recombinant human CD47
# T1 sequence (Q08722 other isoform, or with tags, fused parts or gaps limits assumed): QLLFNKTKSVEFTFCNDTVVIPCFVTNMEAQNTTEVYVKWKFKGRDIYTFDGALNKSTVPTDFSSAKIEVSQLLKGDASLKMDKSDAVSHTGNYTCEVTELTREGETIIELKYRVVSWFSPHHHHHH
# Assay Procedure: ELISA on recombinant human CD47; legend: NB: not bound
Recorded Endpoint: binding result

Input: Answer with the recorded binding result for the binder listed here: hu.18B9.3i HC_Y100d_A (antibody, V domains shown, Alanine scan variant of hu.18B9.3i; Kabat numbering) VH: EVQLVESGGGLVQPGGSLRLSCAASGFSFNSGYMSWVRQAPGKGLEWIASIYAGSSGKTYYADWAKGRFTISKTSSKTTVYLQMNSLRAEDTAVYYCARDSGGTYYTDALYLWGQGTLVTVSS VL: DIQMTQSPSSLSASVGDRVTITCRASEGISSYLSWYQQKPGKAPKLLIYKASTLTSGVPSRFSGSGSGTDFTLTISSLQPEDFATYYCQSTYGSSGSSGYGAAFGGGTKVEIK
Output: no binding

Input: Answer with the recorded binding result for the binder listed here: hu.18B9.3i HC_Y101A (antibody, name in Kabat numbering, V domains shown, Alanine scan variant of hu.18B9.3i; Kabat numbering) VH: EVQLVESGGGLVQPGGSLRLSCAASGFSFNSGYMSWVRQAPGKGLEWIASIYAGSSGKTYYADWAKGRFTISKTSSKTTVYLQMNSLRAEDTAVYYCARDSGGTYYTDYLALWGQGTLVTVSS VL: DIQMTQSPSSLSASVGDRVTITCRASEGISSYLSWYQQKPGKAPKLLIYKASTLTSGVPSRFSGSGSGTDFTLTISSLQPEDFATYYCQSTYGSSGSSGYGAAFGGGTKVEIK
Output: no binding
